I'd be grateful if you could share measured abundance fitness for these entries.
B1: Protein S100-G, residues 1 to 79; numbered along this chain, P02633 (parent)
chain: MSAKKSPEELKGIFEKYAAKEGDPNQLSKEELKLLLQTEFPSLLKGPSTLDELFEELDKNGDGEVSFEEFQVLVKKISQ

# Variants of: B1
# experiment notes: abundance fitness (aPCA) (normalised: wild type 0, dead -1); higher = more abundant; growth selection in yeast, the domain comes from the species named
# measurement setup: Bos taurus
Lab note: record the figure alone, no unit after it.

Given the entry S42C , report its measured abundance fitness.
-0.074

For L27I then?
0.105

// repeat for L44V and report
0.02

Try K5A next.
-0.037

Now this one: F14L
-0.73

Check S28C too.
-0.07

What about G12Q ?
-0.059

Please do the same for D51G as well.
-0.044

What do you get for I13H ?
-0.287

Data origin: the Human Domainome abundance scans (Beltran et al. 2025)
